Where these numbers come from: ChEMBL document CHEMBL2407067

Tested on: Escherichia coli
METHOD_SUMMARY: Antibacterial activity against Escherichia coli expressing defined beta-lactamase by broth microdilution method
Type: functional
Recorded MIC50 values for a group of molecules are listed next.
Could you give me the number in µg/mL? Just the number is fine.

O=C(O)c1cn(C2CC2)c2cc(N3CCNCC3)c(F)cc2c1=O	0.03
C[C@@H](O)[C@H]1C(=O)N2C(C(=O)O)=C(S[C@@H]3CN[C@H](C(=O)N(C)C)C3)[C@H](C)[C@H]12	0.03
CO/N=C(\C(=O)N[C@@H]1C(=O)N2C(C(=O)[O-])=C(C[N+]3(C)CCCC3)CS[C@H]12)c1csc(N)n1	0.25
CC(C)(O/N=C(\C(=O)N[C@@H]1C(=O)N(S(=O)(=O)O)[C@@H]1CNC(=O)NCc1cc(=O)c(O)cn1O)c1csc(N)n1)C(=O)O	0.125
C[C@H]1[C@H](NC(=O)/C(=N\OC(C)(C)C(=O)O)c2csc(N)n2)C(=O)N1S(=O)(=O)O	4

Recorded MIC50 for `NCC[C@H](O)C(=O)N[C@@H]1C[C@H](N)[C@@H](O[C@H]2O[C@H](CN)[C@@H](O)[C@H](O)[C@H]2O)[C@H](O)[C@H]1O[C@H]1O[C@H](CO)[C@@H](O)[C@H](N)[C@H]1O` , please?
1

----------
Recorded MIC90 values for a group of molecules are listed next.
Test system: Pseudomonas aeruginosa
METHOD_SUMMARY: Antibacterial activity against Pseudomonas aeruginosa from cystic fibrosis patients by broth microdilution method
Assay type: functional
Could you give me the number in µg/mL? Just the number is fine.

C[C@H]1[C@H](NC(=O)/C(=N\OC(C)(C)C(=O)O)c2csc(N)n2)C(=O)N1S(=O)(=O)O [AZTREONAM]	64
CC(C)(O/N=C(\C(=O)N[C@@H]1C(=O)N(S(=O)(=O)O)[C@@H]1CNC(=O)NCc1cc(=O)c(O)cn1O)c1csc(N)n1)C(=O)O	4
O=C(O)c1cn(C2CC2)c2cc(N3CCNCC3)c(F)cc2c1=O [CIPROFLOXACIN]	16

Recorded MIC90 for C[C@@H](O)[C@H]1C(=O)N2C(C(=O)O)=C(S[C@@H]3CN[C@H](C(=O)N(C)C)C3)[C@H](C)[C@H]12 [MEROPENEM] , please?
16

----------
Recorded clearance values for a group of compounds are listed next.
METHOD_SUMMARY: Plasma clearance in Wistar Han rat at 1 mg/kg, iv by LC/MS/MS analysis
Assay type: ADME, organism-based
Parameters: dose 1 mg/kg, route intravenous
Could you give me the number in mL/min/kg? Just the number is fine.

Examples from the recorded data:
CC(C)(O/N=C(\C(=O)N[C@@H]1C(=O)N(S(=O)(=O)[O-])[C@@H]1CNC(=O)OCc1cc(=O)c(O)cn1O)c1csc(N)n1)C(=O)[O-].[Na+].[Na+]	14.2
CC(C)(O/N=C(\C(=O)N[C@@H]1C(=O)N(S(=O)(=O)O)[C@@H]1Cn1cc(COCc2cc(=O)c(O)cn2O)nn1)c1csc(N)n1)C(=O)O	31.3

Now for another entry.
Recorded clearance for `CC(C)(O/N=C(\C(=O)N[C@@H]1C(=O)N(S(=O)(=O)O)[C@@H]1CNC(=O)NCc1cc(=O)c(O)cn1O)c1csc(N)n1)C(=O)O` , please?
8.4

----------
Test system: Pseudomonas aeruginosa
METHOD_SUMMARY: Antibacterial activity against Pseudomonas aeruginosa expressing metallo-beta-lactamase by broth microdilution method
Format: functional
Recorded MIC50 values for a group of molecules are listed next.
Could you give me the number in mg/L? Just the number is fine.

Examples from the recorded data:
C[C@H]1[C@H](NC(=O)/C(=N\OC(C)(C)C(=O)O)c2csc(N)n2)C(=O)N1S(=O)(=O)O	8
O=C(O)c1cn(C2CC2)c2cc(N3CCNCC3)c(F)cc2c1=O	32

Now for another entry.
Recorded MIC50 for `CC(C)(O/N=C(\C(=O)N[C@@H]1C(=O)N(S(=O)(=O)O)[C@@H]1CNC(=O)NCc1cc(=O)c(O)cn1O)c1csc(N)n1)C(=O)O` , please?
0.25

----------
Recorded IC50 values for a group of molecules are listed next.
METHOD_SUMMARY: Inhibition of PBP1b in Pseudomonas aeruginosa ATCC 27853 after 20 mins by fluorescence assay
Could you give me the number in nM? Just the number is fine.

Recorded IC50 for `C[C@H]1[C@H](NC(=O)/C(=N\OC(C)(C)C(=O)O)c2csc(N)n2)C(=O)N1S(=O)(=O)O` , please?
2870

And for `Nc1nc(/C(=N/OC2(C(=O)O)CCC2)C(=O)N[C@@H]2C(=O)N(S(=O)(=O)O)[C@@H]2CNC(=O)NCc2cc(=O)c(O)cn2O)cs1` ?
2460

----------
System: Escherichia coli
METHOD_SUMMARY: Antibacterial activity against Escherichia coli expressing defined beta-lactamase by broth microdilution method
Type: functional
Recorded MIC90 values for a group of compounds are listed next.
Could you give me the number in µg/mL? Just the number is fine.

Examples from the recorded data:
NCC[C@H](O)C(=O)N[C@@H]1C[C@H](N)[C@@H](O[C@H]2O[C@H](CN)[C@@H](O)[C@H](O)[C@H]2O)[C@H](O)[C@H]1O[C@H]1O[C@H](CO)[C@@H](O)[C@H](N)[C@H]1O	16
CO/N=C(\C(=O)N[C@@H]1C(=O)N2C(C(=O)[O-])=C(C[N+]3(C)CCCC3)CS[C@H]12)c1csc(N)n1	4
CC(C)(O/N=C(\C(=O)N[C@@H]1C(=O)N(S(=O)(=O)O)[C@@H]1CNC(=O)NCc1cc(=O)c(O)cn1O)c1csc(N)n1)C(=O)O	1
O=C(O)c1cn(C2CC2)c2cc(N3CCNCC3)c(F)cc2c1=O	0.06

Now for another entry.
Recorded MIC90 for `C[C@@H](O)[C@H]1C(=O)N2C(C(=O)O)=C(S[C@@H]3CN[C@H](C(=O)N(C)C)C3)[C@H](C)[C@H]12` , please?
0.06

----------
Recorded MIC90 values for a group of compounds are listed next.
Test system: Acinetobacter sp.
METHOD_SUMMARY: Antibacterial activity against Acinetobacter spp. by broth microdilution method
Type: functional

Examples from the recorded data:
CC(C)(O/N=C(\C(=O)N[C@@H]1C(=O)N(S(=O)(=O)O)[C@@H]1CNC(=O)NCc1cc(=O)c(O)cn1O)c1csc(N)n1)C(=O)O	> 64 µg/mL
O=C(O)c1cn(C2CC2)c2cc(N3CCNCC3)c(F)cc2c1=O	> 64 µg/mL

Now for another entry.
Recorded MIC90 for `NCC[C@H](O)C(=O)N[C@@H]1C[C@H](N)[C@@H](O[C@H]2O[C@H](CN)[C@@H](O)[C@H](O)[C@H]2O)[C@H](O)[C@H]1O[C@H]1O[C@H](CO)[C@@H](O)[C@H](N)[C@H]1O` , please?
> 64 µg/mL

----------
Tested on: Klebsiella pneumoniae
METHOD_SUMMARY: Antibacterial activity against Klebsiella pneumoniae expressing ESBL by broth microdilution method
Assay type: functional
Recorded MIC90 values for a group of compounds are listed next.

CO/N=C(\C(=O)N[C@@H]1C(=O)N2C(C(=O)[O-])=C(C[N+]3(C)CCCC3)CS[C@H]12)c1csc(N)n1	> 64 µg/mL
C[C@@H](O)[C@H]1C(=O)N2C(C(=O)O)=C(S[C@@H]3CN[C@H](C(=O)N(C)C)C3)[C@H](C)[C@H]12 [MEROPENEM]	0.25 µg/mL
NCC[C@H](O)C(=O)N[C@@H]1C[C@H](N)[C@@H](O[C@H]2O[C@H](CN)[C@@H](O)[C@H](O)[C@H]2O)[C@H](O)[C@H]1O[C@H]1O[C@H](CO)[C@@H](O)[C@H](N)[C@H]1O [AMIKACIN]	64 µg/mL
CC(C)(O/N=C(\C(=O)N[C@@H]1C(=O)N(S(=O)(=O)O)[C@@H]1CNC(=O)NCc1cc(=O)c(O)cn1O)c1csc(N)n1)C(=O)O	1 µg/mL

Recorded MIC90 for C[C@H]1[C@H](NC(=O)/C(=N\OC(C)(C)C(=O)O)c2csc(N)n2)C(=O)N1S(=O)(=O)O [AZTREONAM] , please?
> 64 µg/mL

----------
Recorded MIC90 values for a group of molecules are listed next.
Tested on: Acinetobacter sp.
METHOD_SUMMARY: Antibacterial activity against Acinetobacter spp. by broth microdilution method
Format: functional

Examples from the recorded data:
C[C@H]1[C@H](NC(=O)/C(=N\OC(C)(C)C(=O)O)c2csc(N)n2)C(=O)N1S(=O)(=O)O	> 64 µg/mL
CO/N=C(\C(=O)N[C@@H]1C(=O)N2C(C(=O)[O-])=C(C[N+]3(C)CCCC3)CS[C@H]12)c1csc(N)n1	> 64 µg/mL

Now for another entry.
What value of MIC90 on Acinetobacter sp. does `C[C@@H](O)[C@H]1C(=O)N2C(C(=O)O)=C(S[C@@H]3CN[C@H](C(=O)N(C)C)C3)[C@H](C)[C@H]12` have?
32 µg/mL
